- Test Name: Half life in Wistar rat at 20 mg/kg, po by LC-MS/MS analysis
- Assay type: ADME, organism-based
- Condition Notes: in vivo
Reported Metric: half-life (min)
The reply should be a number in min, with the unit left off.

Which half-life value is on record for `CCCc1nc(C(C)(C)O)c(C(=O)O)n1Cc1ccc(-c2ccccc2-c2nnn[nH]2)cc1` ?
30

----------
- Test Name: Permeability across apical to basolateral side in human Caco-2 cells
- Type: ADME, cell-based
- Condition Notes: read-out: permeability
Reported Metric: Papp A→B (×10⁻⁶ cm/s)
The reply should be a number in ×10⁻⁶ cm/s, with the unit left off.

Compound | Papp A→B [×10⁻⁶ cm/s]
CCOc1nc2cccc(C(=O)O)c2n1Cc1ccc(-c2ccccc2-c2noc(=O)[nH]2)cc1 [AZILSARTAN] | 0.636

For the next question, use this compound.
Which Papp A→B value is on record for CCOc1nc2cccc(C(=O)OCc3oc(=O)oc3C)c2n1Cc1ccc(-c2ccccc2-c2noc(=O)[nH]2)cc1 [AZILSARTAN MEDOXOMIL] ?
2.8

Data credit: ChEMBL document CHEMBL6134894
